- System name: human RXFP1 (Homo sapiens, UniProt Q9HBX9)
- Construct: expressed in transfected cells
- Experiment summary: RXFP1 cAMP assay (hRXFP1 HEK293 cAMP assay, HTRF)
- Assay type: cell-based
- Test conditions: HEK293 cells stably expressing human RXFP1, 30 min at room temperature, read-out: cAMP hRXFP1 HEK293 Assay EC50
Readout: pEC50
# pEC50 is unitless: minus log10 of the molar concentration; print number only

- Compound: "COc1ccc(C2=NOC3COCC23)cc1C(=O)N[C@H]1[C@@H](C(=O)NC(C)(C)C(C)(C)C)[C@H]2CC[C@@H]1/C2=C\\C1CC1 (stereo partly shown)"
  pEC50: 7.89

IN: What value of measured pEC50 is listed for COc1ccc(C2=NOC3(C2)CC(CO)C3)cc1C(=O)N[C@H]1[C@@H](C(=O)Nc2ccc(F)c(C(F)(F)F)c2)[C@H]2CC[C@@H]1/C2=C\C1CC1 (single isomer, unassigned) [compound 711] ?
OUT: 5.81

IN: Can you check COc1ccc(C2=NOC(C(=O)O)C2)cc1C(=O)N[C@H]1[C@@H](C(=O)Nc2ccc(F)c(C(F)(F)F)c2)[C@H]2CC[C@@H]1/C2=C\C1CC1 (mixture of isomers) next?
OUT: 6.91

IN: Can you check COc1ccc(C2=NOC3COCC23)cc1C(=O)N[C@H]1[C@@H](C(=O)NCC2CCCC2)[C@H]2CC[C@@H]1/C2=C\C1CC1 (stereo partly shown) next?
OUT: 7.06

IN: Can you check CCOC(=O)c1c(-c2ccc(F)cc2)[nH]c2ccc(-c3ccc(OC)c(C(=O)N[C@@H]4C5CCC(/C5=C/C(F)(F)F)[C@@H]4C(=O)Nc4ccc(F)c(C(F)(F)F)c4)c3)cc12 (stereo partly shown) next?
OUT: 7.15

IN: Can you check CCC(NC(=O)[C@@H]1[C@H](NC(=O)c2cc(C3=NOC4COCC34)ccc2OC)[C@@H]2CC[C@H]1/C2=C/C1CC1)c1ccccc1C (single isomer, unassigned) [compound 652] next?
OUT: 6.56

IN: Can you check COc1ccc(Br)cc1C(=O)NC1C2CCC(C2=C(C)C)C1C(=O)Nc1ccc(F)c(C(F)(F)F)c1 (stereo not shown) next?
OUT: 6.40

---

- System name: human RXFP1 (Homo sapiens)
- Construct: expressed in transfected cells
- Experiment summary: RXFP1 cAMP assay (hRXFP1 HEK293 cAMP assay, HTRF)
- Assay type: cell-based
- Test conditions: HEK293 cells stably expressing human RXFP1, 30 min at room temperature, read-out: cAMP hRXFP1 HEK293 Assay EC50
Readout: EC50 (nM)
Number only, in nM; omit the unit.

Consider the worked cases shown below.
- Molecule: "CN(C)c1ccc(C2=NOC3COCC23)cc1C(=O)N[C@H]1[C@@H](C(=O)Nc2ccc(F)c(C(F)(F)F)c2)[C@H]2CC[C@@H]1/C2=C\\C1CC1 (stereo partly drawn)"
  EC50 / nM: 2.5
- Molecule: "COc1ccc(-c2cccn3c(C(=O)OCc4ccccc4)cnc23)cc1C(=O)N[C@@H]1C2CCC(/C2=C/C(F)(F)F)[C@@H]1C(=O)Nc1ccc(F)c(C(F)(F)F)c1 (stereo partly drawn)"
  EC50 / nM: 60
- Molecule: "COc1ccc(-c2cc([C@H](OC(=O)NC3CCC3)C(F)(F)F)ccc2F)cc1C(=O)N[C@@H]1C2CCC(/C2=C/C2CCC2)[C@@H]1C(=O)Nc1ccc(F)c(C(F)(F)F)c1 (stereo partly drawn)"
  EC50 / nM: 5.7
- Molecule: "COc1ccc(C2=NO[C@H]3CC(CO)C[C@@H]23)cc1C(=O)N[C@H]1[C@@H](C(=O)Nc2ccc(F)c(C(F)(F)F)c2)[C@H]2CC[C@@H]1/C2=C\\C1CC(F)(F)C1 (stereo partly drawn)"
  EC50 / nM: 4.5
- Molecule: "COc1ccc(-c2cc(C3=NOC4CC(CO)CC34)ccc2F)cc1C(=O)N[C@H]1[C@@H](C(=O)Nc2ccc(F)c(C(F)(F)F)c2)[C@H]2CC[C@@H]1/C2=C\\C1CCCC1 (stereo partly drawn) [compound 950]"
  EC50 / nM: 4.9

Continue with the next molecule.
IN: What value of measured EC50 is listed for COc1ccc(C2=NOC3CC(CO)CC23)cc1C(=O)N[C@H]1[C@@H](C(=O)N[C@H](C)C2(C)CC2)[C@H]2CC[C@@H]1/C2=C\c1csc(C)n1 (stereo partly drawn) ?
OUT: 4.7

---

- System name: human RXFP1 (Homo sapiens)
- Construct: expressed in transfected cells
- Experiment summary: RXFP1 cAMP assay (hRXFP1 HEK293 cAMP assay, HTRF)
- Format: cell-based
- Test conditions: HEK293 cells stably expressing human RXFP1, 30 min at room temperature, read-out: cAMP hRXFP1 HEK293 Assay EC50
Known EC50 of a selection of compounds
Units required after the number.

- Compound: "CCC(C)(C)NC(=O)[C@@H]1[C@H](NC(=O)c2cc(C3=NOC4COCC34)ccc2OC)[C@@H]2CC[C@H]1/C2=C/C1CC1 (stereo partly drawn)"
  EC50: "11.9 nM"

IN: What value of measured EC50 is listed for `COc1ccc(-c2cc([C@H](O)C(F)(F)F)ccc2F)cc1C(=O)N[C@H]1[C@@H](C(=O)Nc2ccc(F)c(C(F)(F)F)c2)[C@H]2CC[C@@H]1/C2=C\C1CCC1` ?
OUT: 8.2 nM

IN: Can you check COc1cc(F)c(C2=NOC3COCC23)cc1C(=O)N[C@H]1[C@@H](C(=O)Nc2ccc(F)c(C(F)(F)F)c2)[C@H]2CC[C@@H]1/C2=C\C1CC1 (stereo partly drawn) [Example 419] next?
OUT: 17 nM

---

- System name: human RXFP1 (Homo sapiens)
- Construct: expressed in transfected cells
- Sequence (Q9HBX9 1-757): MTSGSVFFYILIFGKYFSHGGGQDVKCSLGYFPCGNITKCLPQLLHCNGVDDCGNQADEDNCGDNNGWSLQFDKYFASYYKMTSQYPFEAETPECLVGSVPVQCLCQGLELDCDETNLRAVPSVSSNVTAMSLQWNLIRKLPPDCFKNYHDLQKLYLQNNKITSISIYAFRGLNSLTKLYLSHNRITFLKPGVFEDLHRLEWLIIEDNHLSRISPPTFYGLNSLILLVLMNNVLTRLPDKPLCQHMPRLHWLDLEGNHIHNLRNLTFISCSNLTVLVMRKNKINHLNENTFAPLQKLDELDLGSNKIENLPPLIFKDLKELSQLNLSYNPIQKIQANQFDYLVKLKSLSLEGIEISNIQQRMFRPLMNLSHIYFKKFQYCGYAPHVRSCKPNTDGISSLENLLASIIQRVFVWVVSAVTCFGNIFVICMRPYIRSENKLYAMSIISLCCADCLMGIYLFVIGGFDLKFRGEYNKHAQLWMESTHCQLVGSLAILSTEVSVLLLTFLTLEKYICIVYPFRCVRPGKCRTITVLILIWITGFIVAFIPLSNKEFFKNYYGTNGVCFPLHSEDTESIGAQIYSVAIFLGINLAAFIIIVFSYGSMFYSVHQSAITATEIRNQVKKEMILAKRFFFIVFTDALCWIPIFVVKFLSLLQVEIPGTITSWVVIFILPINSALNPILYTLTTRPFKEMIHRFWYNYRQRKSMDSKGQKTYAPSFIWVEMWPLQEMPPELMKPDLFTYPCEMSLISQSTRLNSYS
- Experiment summary: RXFP1 cAMP assay (hRXFP1 HEK293 cAMP assay, HTRF)
- Type: cell-based
- Test conditions: HEK293 cells stably expressing human RXFP1, 30 min at room temperature, read-out: cAMP hRXFP1 HEK293 Assay EC50
Readout: pEC50
# pEC50 is unitless: minus log10 of the molar concentration; print number only

Consider the worked cases shown below.
- Compound: "COc1ccc(-c2cc([C@H](C)O)on2)cc1C(=O)N[C@H]1[C@@H](C(=O)Nc2ccc(F)c(C(F)(F)F)c2)[C@H]2CC[C@@H]1/C2=C\\C1CC1 [compound 465]"
  Readout: "pEC50"
  Meas value: 8.46
- Compound: "COc1ccc(C2=NOC3COCC23)cc1C(=O)N[C@H]1[C@@H](C(=O)NCCC2CCC2)[C@H]2CC[C@@H]1/C2=C\\C1CC1 (stereo partly drawn) [compound 648]"
  Readout: "pEC50"
  Meas value: 6.62
- Compound: "COc1ccc(-c2cc(C(OC(=O)Nc3ccccc3)C(=O)O)ccc2F)cc1C(=O)N[C@@H]1C2CCC(/C2=C/C(F)(F)F)[C@@H]1C(=O)Nc1ccc(F)c(C(F)(F)F)c1 (stereo partly drawn) [compound 205]"
  Readout: "pEC50"
  Meas value: 9.00
- Compound: "COc1ccc(C2=NOC3COCC23)cc1C(=O)N[C@H]1[C@@H](C(=O)N[C@H](C)c2ccccc2C(F)(F)F)[C@H]2CC[C@@H]1/C2=C\\C1CC1 (stereo partly drawn) [compound 510]"
  Readout: "pEC50"
  Meas value: 7.82
- Compound: "COc1ccc(C2=NOC3CCCCCCC23)cc1C(=O)N[C@H]1[C@@H](C(=O)Nc2ccc(F)c(C(F)(F)F)c2)[C@H]2CC[C@@H]1/C2=C\\C1CC1 (stereo partly drawn) [compound 537]"
  Readout: "pEC50"
  Meas value: 7.59
- Compound: "COc1ccc(-c2cc(C3=NOC(C(=O)O)C3)ccc2F)cc1C(=O)N[C@H]1[C@@H](C(=O)Nc2ccc(F)c(C(F)(F)F)c2)[C@H]2CC[C@@H]1/C2=C\\C1CCCC1 (stereo partly drawn) [compound 946]"
  Readout: "pEC50"
  Meas value: 9.05
- Compound: "CN(C)c1ccc(C2=NOC3COCC23)cc1C(=O)N[C@H]1[C@@H](C(=O)Nc2ccc(F)c(C(F)(F)F)c2)[C@H]2CC[C@@H]1/C2=C\\C(F)(F)F (single isomer, unassigned) [compound 518]"
  Readout: "pEC50"
  Meas value: 7.74
- Compound: "CC(F)(F)COc1ccc(C2=NOC3COCC23)cc1C(=O)N[C@@H]1C2CCC(/C2=C/C2CC2)[C@@H]1C(=O)Nc1ccc(F)c(C(F)(F)F)c1 (stereo partly drawn) [compound 790]"
  Readout: "pEC50"
  Meas value: 8.31

IN: Form field: pEC50 recorded for COc1ccc(C2=NOC3CCC(O)C23)cc1C(=O)N[C@H]1[C@@H](C(=O)Nc2ccc(F)c(C(F)(F)F)c2)[C@H]2CC[C@@H]1/C2=C\C1CC1 (single isomer, unassigned) [compound 496] with human RXFP1 (Homo sapiens) (enter value)
OUT: 7.98

IN: Can you check COc1ccc(-c2cc(C3=NOC4COCC34)ccc2F)cc1C(=O)N[C@H]1[C@@H](C(=O)Nc2ccc(F)c(C(F)(F)F)c2)[C@H]2CC[C@@H]1/C2=C\C1CC1 (stereo partly drawn) [compound 911] next?
OUT: 8.12
